- TARGET ENTITY: factor Xa (Homo sapiens)
- Construct: human factor Xa samples; gift of Dr. T. Lindhout (University of Limburg, Maastricht)
- Sequence (P00742 41-179 limits assumed): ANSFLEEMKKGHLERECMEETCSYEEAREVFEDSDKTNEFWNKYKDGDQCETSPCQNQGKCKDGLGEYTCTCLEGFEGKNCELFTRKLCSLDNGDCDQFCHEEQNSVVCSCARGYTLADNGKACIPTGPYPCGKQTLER
- Sequence (P00742 235-488 limits assumed): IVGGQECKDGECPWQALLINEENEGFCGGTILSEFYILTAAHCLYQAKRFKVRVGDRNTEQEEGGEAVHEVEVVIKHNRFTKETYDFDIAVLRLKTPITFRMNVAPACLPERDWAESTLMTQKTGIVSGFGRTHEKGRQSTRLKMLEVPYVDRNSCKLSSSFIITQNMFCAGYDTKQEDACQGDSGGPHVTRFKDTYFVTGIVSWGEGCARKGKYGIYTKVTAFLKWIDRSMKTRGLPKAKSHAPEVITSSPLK
- RUN DESCRIPTION: Kinetic parameters of hydrolysis of the substrates by factor Xa in buffer A at 37° C. (Example 4, Table 3)
- Format: biochemical
- CONDITIONS USED: buffer A, 37° C., 50 nM factor Xa
Peptide text beside a SMILES is read from it. * marks the point of attachment. pNA = O=[N+]([O-])c1ccc(N*)cc1
VALUE KIND: Factor Xa kcat (s⁻¹)
Reply with just the number (in s⁻¹).

IN: # query: Factor Xa kcat of entry COC(=O)CC(=O)N[C@H](C(=O)N[C@@H](CCCNC(=N)N)C(=O)Nc1ccc([N+](=O)[O-])cc1)C(C)C.Cl [MZ-Val-Arg-pNA.HCl]
OUT: 10.1

IN: Requested read-out: Factor Xa kcat. Entry: CC(C)[C@H](NC(=O)[C@@H](N)CCC(=O)O)C(=O)N[C@@H](CCCNC(=N)N)C(=O)Nc1ccc([N+](=O)[O-])cc1.Cl.Cl [2HCl.H-Glu-Val-Arg-pNA] (H-Glu-Val-Arg-pNA)
OUT: 1.07

IN: Factor Xa kcat for CC(C)[C@H](NC(=O)CNC(=O)[C@@H]1CCCN1C(=O)CNC(=O)[C@@H](N)CCC(=O)O)C(=O)N[C@@H](CCCNC(=N)N)C(=O)Nc1ccc([N+](=O)[O-])cc1 [2HCl.H-EGPGVR-pNA, 2HCl.H-Glu-Gly-Pro-Gly-Val-Arg-pNA] (H-EGPGVR-pNA) ?
OUT: 3.41
